target: Ba/F3-FGFR4-transfected cells (Homo sapiens, UniProt P22455); assay: Ba/F3-FGFR4 cellular proliferation assay, Alamar Blue; assay type: cell-based
Sequence (P22455 whole entry, change not shown): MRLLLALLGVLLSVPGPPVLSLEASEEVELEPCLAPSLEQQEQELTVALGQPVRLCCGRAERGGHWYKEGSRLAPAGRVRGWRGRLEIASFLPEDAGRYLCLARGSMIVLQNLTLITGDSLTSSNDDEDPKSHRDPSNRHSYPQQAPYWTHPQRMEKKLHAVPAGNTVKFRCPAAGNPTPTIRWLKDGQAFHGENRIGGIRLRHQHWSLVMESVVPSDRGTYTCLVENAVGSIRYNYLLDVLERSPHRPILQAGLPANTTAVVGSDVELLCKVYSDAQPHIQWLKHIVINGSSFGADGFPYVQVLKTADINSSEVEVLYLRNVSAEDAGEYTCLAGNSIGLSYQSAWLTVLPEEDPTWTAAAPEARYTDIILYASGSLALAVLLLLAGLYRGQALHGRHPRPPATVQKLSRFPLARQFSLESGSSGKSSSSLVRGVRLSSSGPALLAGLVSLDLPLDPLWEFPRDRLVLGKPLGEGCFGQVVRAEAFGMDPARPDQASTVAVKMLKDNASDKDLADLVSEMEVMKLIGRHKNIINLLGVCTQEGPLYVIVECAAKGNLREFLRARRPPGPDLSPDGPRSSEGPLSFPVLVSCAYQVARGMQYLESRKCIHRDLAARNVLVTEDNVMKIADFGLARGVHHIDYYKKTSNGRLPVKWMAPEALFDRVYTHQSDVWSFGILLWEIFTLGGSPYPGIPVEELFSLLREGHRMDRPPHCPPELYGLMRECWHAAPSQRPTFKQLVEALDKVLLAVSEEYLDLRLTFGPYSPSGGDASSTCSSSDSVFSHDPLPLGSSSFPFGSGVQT
MEASURED ATTRIBUTE: BAF3-FGFR4 pIC50

COc1cc(OC)cc(N(CC#Cc2ncccc2OC)c2ccc3ncc(-c4cnn(C)c4)nc3n2)c1 ... <5
COc1cc(OC)c(F)c(/N=c2\ccc3ncc(-c4cnn(C)c4)nc3n2CC2CCOC2)c1F (stereo not drawn) ... ~7.6
COc1ccc(Cl)c(N(CC2CCC(=O)N2)c2ccc3ncc(-c4cnn(C)c4)nc3n2)c1Cl (single isomer, unassigned) [Compound 91] ... <5

----------
biological target: FGFR1 (h) (Homo sapiens); assay: FGFR1 (enzymatic assay), TR-FRET; type: biochemical; details: average values if tested multiple times, read-out: FGFR 1 pIC50 (converted)
Sequence (P11362 22-822): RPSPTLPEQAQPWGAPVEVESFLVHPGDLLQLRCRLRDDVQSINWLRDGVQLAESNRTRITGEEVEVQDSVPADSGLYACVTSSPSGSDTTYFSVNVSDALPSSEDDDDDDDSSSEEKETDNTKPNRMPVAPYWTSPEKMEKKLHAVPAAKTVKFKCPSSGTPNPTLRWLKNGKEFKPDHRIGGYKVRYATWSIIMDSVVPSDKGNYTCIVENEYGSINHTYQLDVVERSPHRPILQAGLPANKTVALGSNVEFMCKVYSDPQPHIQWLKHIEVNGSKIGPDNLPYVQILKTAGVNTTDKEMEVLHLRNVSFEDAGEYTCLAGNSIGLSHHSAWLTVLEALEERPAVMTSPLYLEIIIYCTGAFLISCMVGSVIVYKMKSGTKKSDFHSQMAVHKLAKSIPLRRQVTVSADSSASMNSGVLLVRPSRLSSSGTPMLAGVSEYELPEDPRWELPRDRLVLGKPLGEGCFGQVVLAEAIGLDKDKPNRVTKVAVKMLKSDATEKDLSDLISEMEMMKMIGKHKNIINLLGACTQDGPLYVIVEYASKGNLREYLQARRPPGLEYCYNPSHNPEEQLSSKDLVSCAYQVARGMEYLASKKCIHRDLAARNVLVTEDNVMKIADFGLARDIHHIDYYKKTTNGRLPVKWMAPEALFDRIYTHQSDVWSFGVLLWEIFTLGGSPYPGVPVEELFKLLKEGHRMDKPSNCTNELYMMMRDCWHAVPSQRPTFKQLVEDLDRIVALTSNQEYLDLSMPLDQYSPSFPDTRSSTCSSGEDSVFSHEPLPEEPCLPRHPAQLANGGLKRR
MEASURED ATTRIBUTE: IC50

COc1cc(O)cc(N(Cc2ncc[nH]2)c2ccc3ncc(-c4cnn(C)c4)nc3n2)c1F [Compound 95] ... 0.417 nM
COc1cc(OC)c(F)c(/N=c2\ccc3ncc(-c4cnn(C)c4)nc3n2CCN)c1F [Compound 68] ... 0.575 nM
COc1cc(/N=c2\ccc3ncc(-c4cnn(C)c4)nc3n2CC(O)COC(C)C)c(F)c(OC)c1 (single isomer, unassigned) [Compound 77] ... 2.69 nM
COc1cc(OC)c(F)c(/N=c2\ccc3ncc(-c4cnn(C)c4)nc3n2CCCN2CCCC2=O)c1F [Compound 55] ... 0.603 nM
